- Test system: NCI-H23 lung
- protocolSummary: NCI tumour cell line growth inhibition, 48 h
quantityMeasured: TGI (µM)
Give the number; µM is assumed, so skip it.

                                   compound  result
0  C=C1CC(C)(COc2cc(=O)oc3ccccc23)OC1=O (stereo not given)    11.4

Next up:
Incoming: Find the recorded TGI belonging to `C/C(=N\O)c1cccc(Nc2cc(-c3ccccc3)nc3c(O)cccc23)c1` and report it.
Outgoing: 20.2

---

- Tested on: KM12 colon
- protocolSummary: NCI tumour cell line growth inhibition, 48 h
Entries and their measured TGI follow.

Field: example entries. Status: answers known.
In [3]: df
Out[3]:
                                   compound  measuredon    result
0             CC(=O)N=c1ccc2nc(N)nn(O)c-2c1  KM12 colon  > 100 µM
1  O=C1C(=C([O-])c2ccccc2)C(=O)c2ccccc21.O=C1C(=C([O-])c2ccccc2)C(=O)c2ccccc21.[Co+2]  KM12 colon  > 100 µM
2  O=c1oc2ccc3ccccc3c2cc1-c1cn2c(n1)sc1ccccc12  KM12 colon  > 100 µM
3  CN(C)c1ccc(/C=c2\sc3nnc(-c4cccnc4)n3c2=O)cc1  KM12 colon  > 100 µM

Incoming: Record request: TGI value, item N#CC(/C(=N/NC(N)=S)C(=O)Nc1cccc(Cl)c1)c1ccccc1 (configuration not stated)
Outgoing: > 100 µM

Incoming: # get_value(readout='TGI', item= `CC(=O)CC(=O)NC=O` )
Outgoing: > 100 µM

Incoming: Need TGI of CN1C(C)(C)CC(=O)C(Br)C1(C)C (configuration not stated) , thanks.
Outgoing: > 100 µM

Incoming: I am curious: what TGI value has been reported for `Cc1cc(=O)oc2cc(OC(=O)Nc3ccccc3)ccc12` ?
Outgoing: > 100 µM

Incoming: Consider the compound `COC(=O)[C@@H](C)C[C@H](Cc1ccccc1)NC(=O)c1csc([C@@H](C[C@H](C(C)C)N(C)C(=O)C2(NC(=O)[C@H]3CCCCN3C)CCC2)OC(C)=O)n1` and give its measured TGI.
Outgoing: > 25 µM

Incoming: Returns the measured TGI for the input compound. Input: C/C(=N\O)C1CC2C=C(C#N)C1N(Cc1ccccc1)C2 (configuration not stated)
Outgoing: > 100 µM

Incoming: For the compound shown here, `CC(C)(Oc1ccc2c(=O)cc(-c3ccccc3)oc2c1)C(=O)N1CCN(c2ccccc2)CC1` , give the reported TGI.
Outgoing: > 10 µM

Incoming: Would you mind telling me what TGI value was observed for `N#Cc1ccc(C(C2C(=O)NC(=O)NC2=O)C2C(=O)NC(=O)NC2=O)cc1` ?
Outgoing: > 100 µM
